Reference source: PubChem BioAssay

TARGET: Albumin (Bos taurus)
PROTOCOL TEXT: bovine serum albumin binders on microarray, profiling panel, artefact control for SMM control protein annotation, biochemical, small-molecule microarray, Alexa647 label, 635/667 nm fluorescence (AID 1118);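 also: score merges 667 nm emission intensity and signal-to-noise per printed compound spot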
RUN CONDITIONS: BSA-A647 binding, fluorescence 635 nm, higher = more signal
For each of the compounds below, state its composite z-score.
Answers are plain numbers.

Dear colleague, could you send me composite z-score for each of the items below? Thanks.
1. CC(C)CCN1CCc2nc(COc3ccccc3)c3c(c2C1)CO[C@@H](C)C3
2. COc1ccc(O[C@H]2C=C[C@@H](c3ccccc3)O[C@@H]2COC(=O)CCC(C)=NO[C@@H]2O[C@H](COC(C)=O)[C@@H](OC(C)=O)[C@H](OC(C)=O)[C@H]2OC(C)=O)cc1
3. COc1ccc(O[C@H]2C=C[C@@H](c3ccccc3)O[C@@H]2CON=C(C)C)cc1
4. O=C1CCCC=C1C(O)CCOC(c1ccccc1)(c1ccccc1)c1ccccc1 (stereo not given)

[0.536, 0.303, 0.0254, 0.404]

Entry COC(=O)NCC=Cc1nc(CCCO)co1 — recorded composite z-score = 0.782

====

PROTOCOL TEXT: basal RPMI8226 viability, no added stimulus, profiling panel, cell-based, calcein-AM fluorescence, 48 h, PK04 Diversity Set (AID 1166);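 also: cells grown under basal conditions without added stimulus; test concentration not given here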
RUN CONDITIONS: RPMI8226 myeloma viability, higher = more signal
MEASUREMENT KIND: z-score
One number for each entry.

Guide cases for z-score, answers given:
MOLECULE	z-score
CCOC(=O)[C@H](CC(C)C)NC(=O)CCC1CC(OC(=O)NCc2cccc3ccccc23)CC2(CCCC(COC(=O)NCC3CCCCC3)O2)O1 (stereo not given in full)	-1.28
CC1O[C@H]2C3=C(C(=O)[C@@H]4O[C@@H]4[C@H]3O)[C@@H]1C1[C@@H](C)OC=C3[C@H](O)C4O[C@@H]4C(=NOCc4ccccc4)[C@]312 (stereo not given in full)	-3.71
O=C1C[C@@H](O)[C@@H](O)[C@@H]2[C@@H]3C(=O)N(C[C@@H]4CCCO4)C(=O)[C@@H]3CC[C@H]12	0.433
COC(=O)CC=C[C@@H](C)[C@@H](C=NO[C@@H](C)c1cn([C@H](CO)Cc2ccccc2)nn1)NS(=O)(=O)c1ccc(C)cc1	0.593
COC(=O)CC=C[C@@H](C)[C@@H](C=NOC(C)CN1CCCc2nc(C)c(C)cc21)OC (stereo not given in full)	0.142

Dear colleague, could you send me z-score for each of the items below? Thanks.
1. COC(=O)[C@@H]1CC[C@H](C)[C@@H](c2ccc(C)cc2)N1C(=O)c1ccc(C=NO[C@@H](C)c2cn([C@H](CO)Cc3ccccc3)nn2)cc1
2. COc1cc(O)c(C(=O)C=Cc2ccc3c(c2)OCO3)c(OC)c1
3. CON=C(C)CCC(=O)OC[C@H]1O[C@H](c2ccccc2)C=C[C@@H]1Oc1ccc(OC)cc1
4. CCOC(=O)CCN1C(=O)[C@H]2[C@H]3[C@H](O)[C@H](O)CC(=NOCc4ccccc4)[C@H]3CC[C@H]2C1=O
5. CCc1cc2c(nc1CC)CCN(CCC(C)=NOC[C@H]1O[C@H](c3ccccc3)C=C[C@@H]1Oc1ccc(OC)cc1)C2
6. CC(CCN1CCCc2nc(C)c(C)cc21)=NOC(C)CN1CCCCc2nc(C)c(C)cc21 (stereo not given)

-1.92
-1.36
-0.0394
-0.273
-2.35
-0.388

Dear colleague, could you send me z-score for each of the items below? Thanks.
1. COC(=O)C=CCCc1coc(C=CCNC(=O)OC)n1
2. CC=CC1=C(CO)C(=O)[C@@H]2O[C@@H]2C1=O
3. CO[C@H]1COC(=O)CC=C[C@H](C)[C@@H](OC)COC(=O)[C@@H](C)COC(=O)CC=C[C@@H]1C
4. COc1ccc(COC(=O)NN=C2C[C@@H](O)[C@@H](O)[C@@H]3[C@@H]4C(=O)N(c5cccc(Oc6ccccc6)c5)C(=O)[C@@H]4CC[C@@H]23)cc1

1: -2.19; 2: -2.88; 3: 0.21; 4: 0.196

Dear colleague, could you send me z-score for each of the items below? Thanks.
1. COC(=O)[C@@H]1CC[C@H](C)[C@@H](c2ccc(C)cc2)N1C(=O)c1ccc(C=NO[C@H](C)c2cn([C@@H]3COC[C@H]3O)nn2)cc1
2. CC(C)=NO[C@H](C)c1cn([C@H](CO)Cc2ccccc2)nn1
3. O=C(NN=C1C[C@@H](O)[C@@H](O)[C@@H]2[C@@H]3C(=O)N(C4CCCCC4)C(=O)[C@@H]3CC[C@@H]12)OCc1ccccc1
4. CCN1C(=O)[C@H]2[C@H]3[C@H](O)[C@H](O)CC(=NOCC(C)C)[C@@H]3CC[C@H]2C1=O
5. COC(=O)C1=C(C)N(Cc2ccccc2)[C@]23O[C@](C(=O)OC)(C(=O)N2[C@@H]1c1ccccc1)C(C(=O)OC)=C3C(=O)OC
6. COC(=O)CC=C[C@@H](C)[C@@H]1C=C[C@H](O)[C@@H](CO)O1
7. Cc1cc2c(nc1C)CCCCN2CC(C)ON=C1[C@H]2CCn3c(=O)n(-c4ccccc4)c(=O)n3[C@H]2[C@H](O)[C@@H]2O[C@H]12 (stereo not given in full)
8. CO[C@H]1COC(=O)CC=C[C@@H](C)[C@H](OC)COC(=O)[C@@H]2CCCN2C(=O)CC=C[C@@H]1C

-0.486
-0.33
-0.697
0.922
-3.2
-0.932
-1.21
-0.394

Dear colleague, could you send me z-score for each of the items below? Thanks.
1. CCCCC#C[C@@H]1C=C[C@H](Oc2cc(OC)c(OC)c(OC)c2)[C@@H](COC(=O)OCC)O1
2. CCOC(=O)[C@H](CC(C)C)NC(=O)CCC1CC(OC(=O)NCc2cccc3ccccc23)CC2(CCCC(COC(=O)NCCc3ccc(Cl)cc3)O2)O1 (stereo not given in full)
3. C[C@@H](ON=C1[C@H]2CCn3c(=O)n(-c4ccccc4)c(=O)n3[C@H]2[C@H](O)[C@@H]2O[C@H]12)c1cn([C@@H]2COC[C@H]2O)nn1
4. O=C1[C@H]2[C@H]3[C@H](O)[C@H](O)CC(=NOCc4ccccc4)[C@@H]3CC[C@H]2C(=O)N1C[C@@H]1CCCO1
5. CCOC(=O)[C@H](Cc1ccccc1)NC(=O)CCC1CC(OC(=O)NCCc2ccc(F)cc2)CC2(CCCC(COC(=O)NCCc3ccc(Cl)cc3)O2)O1 (stereo not given in full)
6. C[C@@H](c1ccccc1)N1C(=O)[C@H]2[C@H]3[C@H](O)[C@H](O)CC(=O)[C@H]3CC[C@H]2C1=O
7. C[C@@H]1CC[C@H]2C(=O)O[C@@H](COc3ccc(C(C)(C)C)cc3)CN2[C@@H]1c1ccc(Br)cc1

1: -1.86; 2: 0.403; 3: -0.292; 4: -0.812; 5: -1.94; 6: -0.094; 7: -0.391

====

PROTOCOL TEXT: A549 cell viability effects, profiling panel, calcein-AM fluorescence, 48 h, basal (AID 1162); also: test concentration not given here
RUN CONDITIONS: higher = more signal
z-score below 0.01 gives F; z-score at or above it gives T.

Examples from the recorded data:
SMILES	ASSIGNED CATEGORY
CO[C@H]1COC(=O)[C@@H](C)COC(=O)[C@@H](OCc2ccccc2)C=C[C@@H]1C	F
COC(=O)CC=C[C@@H](C)[C@@H](C=NOC[C@H]1O[C@H](c2ccccc2)C=C[C@@H]1Oc1ccc(OC)cc1)OC	T
COc1ccc(O[C@H]2C=C[C@@H](c3ccccc3)O[C@@H]2COC(=O)CCC(C)=NO[C@@H]2O[C@H](COC(C)=O)[C@@H](OC(C)=O)[C@H](OC(C)=O)[C@H]2OC(C)=O)cc1	F
CCc1cc2c(nc1CC)CCN(CCC(C)=NO[C@H](C)c1cn([C@@H]3COC[C@H]3O)nn1)C2	T
O=C1C[C@@H](O)[C@@H](O)[C@@H]2[C@@H]3C(=O)N(C[C@@H]4CCCO4)C(=O)[C@@H]3CC[C@H]12	F
O=C1[C@H]2[C@H]3[C@H](O)[C@H](O)CC(=NOCc4ccccc4)[C@@H]3CC[C@H]2C(=O)N1Cc1ccc2c(c1)OCO2	F

z-score >= 0.01 for CCOC(=O)CCN1C(=O)[C@H]2[C@H]3[C@H](O)[C@H](O)CC(=NOCc4ccccc4)[C@H]3CC[C@H]2C1=O ?
T

====

PROTOCOL TEXT: modulators of HCV replicon luciferase signal, primary screen, HCV replication inhibitor project, Huh7 cells, luciferase reporter (AID 1109);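 also: huh7 hepatoma cells harbouring a luciferase neomycin HCV replicon reporter; luciferase luminescence as measure of HCV replicon replication; test concentration not given here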
RUN CONDITIONS: 48 h, higher = more signal
z-score below -0.8 gives false (0); z-score at or above it gives true (1).

Examples from the recorded data:
COMPOUND	ASSIGNED CATEGORY
CC(CCC(=O)OC[C@H]1O[C@H](C#Cc2ccccc2)C=C[C@@H]1Oc1ccc(C)cc1)=NO[C@H](C)c1cn([C@H](CO)Cc2ccccc2)nn1	false (0)
Cc1ccc(S(=O)(=O)N[C@H]2COC(=O)CC=C[C@@H](C)COC(=O)CC=C[C@@H]2C)cc1	true (1)
C=CC[C@@H]1C=C[C@H](ON=C[C@@H](C)[C@H](OCc2ccccc2)C(C)C)[C@@H](CO)O1	false (0)
CCOC(=O)[C@H](Cc1ccccc1)NC(=O)CCC1CC(OC(=O)NCCc2ccc(F)cc2)CC2(CCCC(COC(=O)NCCOC)O2)O1 (stereo not given in full)	true (1)
C[C@@H](c1ccccc1)N1C(=O)[C@H]2[C@H]3[C@H](O)[C@H](O)CC(=NOCc4ccccc4)[C@H]3CC[C@H]2C1=O	true (1)
CC(C)CON=C1[C@H]2CCn3c(=O)n(Cc4cc5c(cc4Cl)OCO5)c(=O)n3[C@H]2[C@H](O)[C@@H]2O[C@H]12	true (1)

z-score >= -0.8 for CCOC(=O)[C@H](CC(C)C)NC(=O)CCC1CC(OC(=O)NCc2ccc3c(c2)OCO3)CC2(CCCC(COC(=O)NCC3CCCCC3)O2)O1 (stereo not given in full) ?
false (0)

z-score >= -0.8 for O=C(C=Cc1ccc2c(c1)OCO2)c1ccc(F)cc1 ?
true (1)

z-score >= -0.8 for C[C@H](ON=C1[C@H]2CCn3c(=O)n(-c4ccccc4)c(=O)n3[C@H]2[C@H](O)[C@@H]2O[C@H]12)c1cn([C@H](CO)Cc2ccccc2)nn1 ?
false (0)

z-score >= -0.8 for Cc1cc2c(nc1C)CCCCN2CC(C)ON=C[C@@H](C)[C@H](OCc1ccccc1)C(C)C (stereo not given in full) ?
false (0)

z-score >= -0.8 for COC(=O)CC=C[C@@H](C)[C@H](OCc1cccc(-c2ccccc2)c1)C1CCCCC1 ?
true (1)

z-score >= -0.8 for Cc1ccc(S(=O)(=O)n2c3ccccc3c3nnc(C(=O)c4ccccc4)nc32)cc1 ?
true (1)

z-score >= -0.8 for CC(C)(C)N1C(=O)[C@H]2[C@H]3[C@H](O)[C@H](O)CC(=NO[C@@H]4O[C@H](CO)[C@@H](O)[C@H](O)[C@H]4O)[C@H]3CC[C@H]2C1=O ?
false (0)
